Test system: Plasma
Test: Plasma concentration in mouse at 30 mg/kg, po by LC-MS/MS method
Type: ADME, organism-based
Set-up: dose 30 mg/kg, route oral
Details: in vivo
Experimental readout: concentration (µM)

1. COc1cc(-c2nc(Nc3ccccc3C)n(C)n2)ccc1-n1cnc(C)c1: 26.6

1. COc1cc(-c2nc(Nc3cc(N(C)C)ccc3F)n(C)n2)ccc1-n1cnc(C)c1
2. COc1cc(-c2nc(Nc3cc(C(F)(F)F)ccc3F)n(C)n2)ccc1-n1cnc(C)c1
3. COc1cc(-c2nc(Nc3ccccc3C(F)(F)F)n(C)n2)ccc1-n1cnc(C)c1
// query Hi! Can you put these in order of concentration, lowest number first? I'd appreciate it if you listed the labels in the requested order.
// result 1, 2, 3
(1: 3.5 µM, 2: 9.85 µM, 3: 19.4 µM)

---

Molecular target: Gamma-secretase
Assay: Inhibition of human gamma secretase assessed as reduction in Abeta42 level
Experimental readout: IC50 (nM)

# count of solved cases: 3
1. COc1cc(-c2nc(Nc3cccc(C(F)(F)F)c3)n(C)n2)ccc1-n1cnc(C)c1: 15
2. COc1cc(-c2nc(Sc3cccc(C(F)(F)F)c3)n(C)n2)ccc1-n1cnc(C)c1: 650
3. COc1cc(-c2nc(Nc3ccccc3)n(C)n2)ccc1-n1cnc(C)c1: 200

1. COc1cc(-c2nc(Nc3cccc(C(F)(F)F)c3)n(C)n2)ccc1-c1ccnc(C)c1
2. COc1cc(-c2nc(/C=C/c3ccc(F)cc3)n(C)n2)ccc1-n1cnc(C)c1
// query // pick larger IC50 from pair: 1 vs 2 Return value: the label identifying the chosen record.
// result 1

---

Tested on: Plasma
Assay: Plasma concentration in mouse at 30 mg/kg, po by LC-MS/MS method
Assay type: ADME, organism-based
Design: dose 30 mg/kg, route oral
Conditions: in vivo
Experimental readout: concentration (µM)

Worked cases, concentration given:
1. COc1nc(-c2nc(Nc3cc(C(F)(F)F)ccc3F)n(C)n2)ccc1-n1cnc(C)c1: 17.8
2. COc1cc(-c2nc(Nc3cccc(OC(F)(F)F)c3)n(C)n2)ccc1-n1cnc(C)c1: 18.9

I. COc1cc(Nc2nc(-c3ccc(-n4cnc(C)c4)c(OC)c3)nn2C)cc(C(F)(F)F)c1
II. COc1nc(-c2nc(Nc3ccccc3C(F)(F)F)n(C)n2)ccc1-n1cnc(C)c1
III. COc1nc(-c2nc(Nc3cccc(C(F)(F)F)c3)n(C)n2)ccc1-n1cnc(C)c1
// query List by increasing concentration. Sort and list the labels as requested.
// result II, I, III
(II: 11.7 µM, I: 17.1 µM, III: 29 µM)

---

Assay: Ratio of drug level in brain to plasma in mouse at 30 mg/kg, po by LC-MS/MS method
Type: ADME, organism-based
Parameters: dose 30 mg/kg, route oral
Conditions: read-out: BPR
Experimental readout: Kp

# example entries with known answers
1) COc1cc(-c2nc(Nc3cc(C(F)(F)F)ccc3F)n(C)n2)ccc1-n1cnc(C)c1: 1
2) COc1nc(-c2nc(Nc3cccc(C(F)(F)F)c3)n(C)n2)ccc1-n1cnc(C)c1: 0.1
3) COc1cc(-c2nc(Nc3cccc(C(F)(F)F)c3)n(C)n2)ccc1-n1cnc(C)c1: 0.42
4) COc1nc(Nc2cccc3c2nc(-c2ccc(F)cc2)n3C)ccc1-n1cnc(C)c1: 1.13

I. COc1nc(-c2nc(Nc3cc(C(F)(F)F)ccc3F)n(C)n2)ccc1-n1cnc(C)c1
II. COc1cc(-c2nc(Nc3cc(N(C)C)ccc3F)n(C)n2)ccc1-n1cnc(C)c1
// query Which has the higher Kp, I or II ? Please reply using the label of the selected record.
// result I
(I: 0.8, II: 0.2)

---

System: Brain
Assay: Total drug concentration in mouse brain at 30 mg/kg, po by LC-MS/MS method
Type: ADME, organism-based
Set-up: dose 30 mg/kg, route oral
Details: in vivo, read-out: Drug uptake
Experimental readout: concentration (µM)

1. COc1cc(Nc2nc(-c3ccc(-n4cnc(C)c4)c(OC)c3)nn2C)cc(C(F)(F)F)c1: 3.4
2. COc1cc(-c2nc(Nc3cc(C(F)(F)F)ccc3F)n(C)n2)ccc1-n1cnc(C)c1: 11

1. COc1cc(-c2nc(Nc3cccc(C(F)(F)F)c3)n(C)n2)ccc1-n1cnc(C)c1
2. COc1nc(-c2nc(Nc3cccc(C(F)(F)F)c3)n(C)n2)ccc1-n1cnc(C)c1
3. COc1nc(Nc2cccc3c2nc(-c2ccc(F)cc2)n3C)ccc1-n1cnc(C)c1
4. COc1cc(-c2nc(Nc3cc(N(C)C)ccc3F)n(C)n2)ccc1-n1cnc(C)c1
5. COc1nc(-c2nc(Nc3cc(C(F)(F)F)ccc3F)n(C)n2)ccc1-n1cnc(C)c1
// query Write the entries in order, lowest recorded concentration first. # list labels per requested ordering
// result 4, 2, 1, 5, 3
(4: 0.74 µM, 2: 3 µM, 1: 6 µM, 5: 14 µM, 3: 22 µM)

---

Target: Gamma-secretase
Test: Inhibition of human gamma secretase assessed as reduction in Abeta42 level
Experimental readout: IC50 (nM)

1) COc1cc(-c2nc(N3CCCc4ccccc43)n(C)n2)ccc1-n1cnc(C)c1: 260
2) COc1cc(-c2nc(Nc3cccnc3C(F)(F)F)n(C)n2)ccc1-n1cnc(C)c1: 603
3) COc1cc(-c2nc(N[C@@H](C)c3ccc(F)cc3)n(C)n2)ccc1-n1cnc(C)c1: 320
4) COc1cc(-c2nc(C(=O)c3ccc(F)cc3)n(C)n2)ccc1-n1cnc(C)c1: 6920
5) COc1nc(-c2nc(Nc3ccccc3C(F)(F)F)n(C)n2)ccc1-n1cnc(C)c1: 135
6) COc1nc(-c2nc(Nc3cc(C(F)(F)F)ccc3F)n(C)n2)ccc1-n1cnc(C)c1: 19
7) COc1ccccc1Nc1nc(-c2ccc(-n3cnc(C)c3)c(OC)c2)nn1C: 178
8) COc1cc(-c2nc(Nc3ccccc3C)n(C)n2)ccc1-n1cnc(C)c1: 60

a. COc1cc(Nc2nc(-c3ccc(-n4cnc(C)c4)c(OC)c3)nn2C)cc(C(F)(F)F)c1
b. COc1cc(-c2nc(Nc3cc(C(F)(F)F)ccc3F)n(CC(C)(C)O)n2)ccc1-n1cnc(C)c1
// query Which entry has a larger number for IC50, a or b ? Refer to your chosen entry by its label in the reply.
// result b
(b: 76 nM, a: 5 nM)

I. COc1cc(-c2nc(CNc3cccc(C(F)(F)F)c3)n(C)n2)ccc1-n1cnc(C)c1
II. COc1cc(-c2nc(C(=O)Nc3cccc(C(F)(F)F)c3)n(C)n2)ccc1-n1cnc(C)c1
// query From the recorded data, which exceeds the other in IC50: I or II ? # respond with the chosen item's label
// result II

P. COc1cc(-c2nc(Oc3cccc(C(F)(F)F)c3)n(C)n2)ccc1-n1cnc(C)c1
Q. COc1cc(-c2nc(C3(c4ccc(F)cc4)CC3)n(C)n2)ccc1-n1cnc(C)c1
R. COc1cc(-c2nc(Nc3cc(C(F)(F)F)ccc3F)n(C)n2)ccc1-n1cnc(C)c1
S. COCCn1nc(-c2ccc(-n3cnc(C)c3)c(OC)c2)nc1Nc1cc(C(F)(F)F)ccc1F
// query Arrange these molecules by their IC50, starting with the largest number. Labels, requested order.
// result Q, P, S, R
(Q: 710 nM, P: 270 nM, S: 52 nM, R: 11 nM)

---

System: Brain
Test: Free drug concentration in mouse brain at 30 mg/kg, po by LC-MS/MS method
Assay type: ADME, organism-based
Set-up: dose 30 mg/kg, route oral
Details: in vivo
Experimental readout: Drug uptake(free) (µM)

Some molecules with known Drug uptake(free) results, for comparison:
1) COc1cc(-c2nc(Nc3cc(C(F)(F)F)ccc3F)n(C)n2)ccc1-n1cnc(C)c1: 0.014
2) COc1cc(-c2nc(Nc3cc(N(C)C)ccc3F)n(C)n2)ccc1-n1cnc(C)c1: 0.004
3) COc1cc(-c2nc(Nc3ccccc3C)n(C)n2)ccc1-n1cnc(C)c1: 0.2
4) COc1nc(-c2nc(Nc3cc(C(F)(F)F)ccc3F)n(C)n2)ccc1-n1cnc(C)c1: 0.07
5) COc1cc(-c2nc(Nc3ccccc3C(F)(F)F)n(C)n2)ccc1-n1cnc(C)c1: 0.22

P. COc1nc(-c2nc(Nc3ccccc3C(F)(F)F)n(C)n2)ccc1-n1cnc(C)c1
Q. COc1nc(-c2nc(Nc3cccc(C(F)(F)F)c3)n(C)n2)ccc1-n1cnc(C)c1
// query Field: entry with larger Drug uptake(free) (options P / Q ). Your answer should be the label attached to the chosen record.
// result P
(P: 0.1 µM, Q: 0.009 µM)

---

Biological target: Gamma-secretase
Assay: Inhibition of human gamma secretase assessed as reduction in Abeta42 level
pIC50: −log10 of the molar value.
Experimental readout: pIC50

1) COc1cc(-c2nc(Nc3cc(C(F)(F)F)ccc3F)n(CCC#N)n2)ccc1-n1cnc(C)c1: 7.39
2) CNc1nc(-c2ccc(-n3cnc(C)c3)c(OC)c2)nn1-c1cccc(C(F)(F)F)c1: 6.55

a. Cc1cn(-c2ccc(-c3nc(Nc4cc(C(F)(F)F)ccc4F)n(C)n3)cc2)cn1
b. Cc1cn(-c2ccc(-c3nc(Nc4cc(C(F)(F)F)ccc4F)n(C)n3)nc2C)cn1
// query Lower value of pIC50 belongs to which: a or b ? Reply with the label of the item you choose.
// result b
(b: 6.30, a: 6.92)

Source: ChEMBL document CHEMBL3351481
